Listed here are compounds together with their documented IC50.
molecular target: IDO1 (Homo sapiens, UniProt P14902); construct: endogenous in cells; test: IDO1 cell-based assay (HeLa cells, IFNgamma-induced, N-formylkynurenine/L-tryptophan by RFMS); conditions: 10 ng/mL IFNgamma, 24 hours
Sequence (P14902 whole entry): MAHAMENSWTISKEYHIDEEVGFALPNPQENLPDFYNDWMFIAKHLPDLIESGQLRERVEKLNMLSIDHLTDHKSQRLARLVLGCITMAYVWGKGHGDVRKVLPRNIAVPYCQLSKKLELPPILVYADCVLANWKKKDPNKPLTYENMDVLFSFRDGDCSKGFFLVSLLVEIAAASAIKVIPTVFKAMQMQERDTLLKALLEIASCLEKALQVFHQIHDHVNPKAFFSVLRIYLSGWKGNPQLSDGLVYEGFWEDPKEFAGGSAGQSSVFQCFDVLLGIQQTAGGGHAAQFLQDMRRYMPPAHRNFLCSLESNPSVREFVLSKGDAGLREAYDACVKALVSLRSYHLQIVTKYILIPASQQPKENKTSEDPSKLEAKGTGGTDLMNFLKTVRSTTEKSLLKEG

> print(dat)
                                   compound  property.name  experimental.value
1  CCC(NC(=O)c1ccc(Cl)cn1)C1[C@H]2CC(Oc3cnnc4ccccc34)C[C@@H]12 (some centres unmarked)           IC50      200 to 2000 nM

IN: Write IC50 of CC[C@@H](NC(=O)c1ccc(Cl)cc1)[C@H]1[C@@H]2C[C@@H](C(CO)CO)C[C@@H]21 ; system used: IDO1 (Homo sapiens, UniProt P14902)
OUT: 200 to 2000 nM

IN: Write IC50 of CC[C@@H](NC(=O)C1(C(F)(F)F)CC1)[C@H]1[C@@H]2C[C@@H](n3cnc4cc(F)c(F)cc43)C[C@@H]21 ; system used: IDO1 (Homo sapiens, UniProt P14902)
OUT: 200 to 2000 nM

* * *

target: mouse IDO1 (Mus musculus, UniProt P28776); construct: The murine PANC02 pancreatic ductal adenocarcinoma cell line was routinely maintained in DMEM media; endogenous in cells; assay: Mouse IDO1 cell-based assay (PANC02 cells, mouse IFNgamma-induced, N-formylkynurenine/L-tryptophan by RFMS); settings: 30 ng/mL mouse IFNgamma, 48 hours
Sequence (P28776 whole entry): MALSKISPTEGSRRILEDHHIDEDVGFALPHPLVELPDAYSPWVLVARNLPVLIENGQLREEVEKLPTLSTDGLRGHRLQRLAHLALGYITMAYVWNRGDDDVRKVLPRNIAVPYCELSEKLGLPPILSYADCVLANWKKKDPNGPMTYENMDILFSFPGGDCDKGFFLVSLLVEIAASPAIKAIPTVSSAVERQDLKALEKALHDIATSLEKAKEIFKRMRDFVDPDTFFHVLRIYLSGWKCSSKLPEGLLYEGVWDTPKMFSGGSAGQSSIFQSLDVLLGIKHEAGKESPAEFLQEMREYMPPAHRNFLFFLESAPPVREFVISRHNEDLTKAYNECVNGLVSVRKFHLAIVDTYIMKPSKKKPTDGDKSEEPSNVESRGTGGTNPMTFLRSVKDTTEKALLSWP
pIC50: −log10 of the molar value.
Listed here are compounds together with their documented pIC50.

> print(dat)
                                   compound  experimental.value
1  CCC(NC(=O)c1ccc(Cl)cc1)[C@H]1[C@@H]2C[C@@H](n3ncnc3C3CC3)C[C@@H]21 (stereo partly shown)        5.30 to 5.70

IN: Write pIC50 of CCC(NC(=O)c1ccc(Cl)cc1)[C@H]1[C@@H]2C[C@@H](Nc3ccc(F)cn3)C[C@@H]21 (stereo partly shown) ; system used: mouse IDO1 (Mus musculus, UniProt P28776)
OUT: 5.70 to 6.30

* * *

molecular target: IDO1 (Homo sapiens); construct: endogenous in cells; host or cells: HeLa cells (ATCC), IFNgamma-induced; assay: IDO1 cell-based assay (HeLa cells, IFNgamma-induced, N-formylkynurenine/L-tryptophan by RFMS); conditions: 10 ng/mL IFNgamma, 24 hours
pIC50: −log10 of the molar value.
Listed here are compounds together with their documented pIC50.

Guide cases for pIC50, answers given:
> print(dat)
                                   compound         study.target  property.name  experimental.value
1  CCC(NC(=O)c1ccc(Cl)cc1)C1C2CC(Oc3nncc4ccccc34)CC21 (stereo not shown)  IDO1 (Homo sapiens)          pIC50              > 6.70
2  C[C@@H](NC(=O)c1ccc(C#N)cc1)[C@H]1[C@@H]2C[C@H](O)C[C@@H]21  IDO1 (Homo sapiens)          pIC50              < 5.30
3  O=C(Nc1ccc(Cl)cc1)N[C@H]1[C@@H]2C[C@H](Oc3ccnc4ccc(F)cc34)C[C@@H]21  IDO1 (Homo sapiens)          pIC50        5.70 to 6.70
4  CC[C@@H](NC(=O)c1ccc(Cl)cc1)[C@H]1[C@@H]2C[C@@H](n3cccn3)C[C@@H]21  IDO1 (Homo sapiens)          pIC50              > 6.70
5  CC[C@H](NC(=O)c1ccc(Cl)cc1)[C@H]1[C@@H]2C[C@@H](Oc3cnnc4ccccc34)C[C@@H]21  IDO1 (Homo sapiens)          pIC50              > 6.70

IN: State its pIC50 for this compound: CCC(NC(=O)c1ccc(Cl)cc1)[C@H]1[C@@H]2C[C@H](n3cc(CO)nn3)C[C@@H]21 (stereo partly shown)
OUT: 5.70 to 6.70

IN: State its pIC50 for this compound: CCC(NC(=O)c1ccc(Cl)cc1)[C@H]1[C@@H]2C[C@@H](n3nncc3C3CC3)C[C@@H]21 (stereo partly shown)
OUT: > 6.70
